Test system: MCF7 breast
Assay: NCI-60 one-dose screen, 48 h
Conditions: 10 µM unless noted
The panel holds about 83,000 compounds, 20% with a hit somewhere; the sample as a whole holds those more often. Calls of active or inactive are those of the source. Rule for the calls: active = growth percent below 10; inactive = the rest.
Valid outcomes are listed here; reply with one: active, inactive

Consider the worked cases shown below.
COMPOUND | CLASS NAME
COc1ccc(-c2cc(-c3cn(-c4cccc(Cl)c4)nc3-c3ccc(OC)cc3)[nH]c(=S)n2)cc1 | inactive
CN1C(=O)N(C)C2C1NN=c1s/c(=C\c3ccsc3)c(=O)n12 (stereo unspecified) | inactive
COc1ccc(CNc2c3ccccc3nc3ccccc23)cc1F | active
O=C(O/C(=C/c1ccccc1)C(F)(F)F)c1ccccc1 | inactive
CC(=O)N1N=C(C2C(=O)N(C)C(=O)N(C)C2=O)CC1c1ccccc1C(=O)O (stereo unspecified) | inactive

Let's switch to this compound now.
## Task For FC(F)(F)c1cc(-c2nnc3n2N=C(Cl)CS3)cc(C(F)(F)F)c1 , which call appears in the assay record?
## Result inactive

* * *

Tested on: NCI-H460 lung
Experiment: NCI-60 one-dose screen, 48 h (100 = growth as untreated, 0 = no growth, -100 = all killed)
Conditions: 10 µM unless noted
About 83,000 compounds went through this panel and 20% of them were active in at least one assay; those are over-represented in the sample as a whole. Active and inactive are the calls of the source. Rule for the calls: active = growth percent below 10; inactive = the rest.
The following compounds are listed with their measured growth values.

In the examples that follow, each entry is paired with its recorded growth.
COMPOUND | growth
CC(C)[C@@]12C[C@@H](OC(=O)[C@H]3CO3)[C@@](C)(O1)[C@@H]1CC[C@@H](C)[C@H]1[C@@H]2OC(=O)/C=C/c1ccccc1 | 89.8% (inactive)
O=C(C(=O)N1CCCC1)c1cn(CCCn2cc(C(=O)C(=O)N3CCCC3)c3cc(Br)ccc32)c2ccc(Br)cc12 | 53.4% (inactive)
O=C1/C(=C/N2N=C(c3ccc(Cl)cc3)CC2c2ccccc2O)SC(=S)N1c1cccc(C(F)(F)F)c1 (centres undefined) | 44.6% (inactive)
COc1cc(CN2CCC(N3CCCC3=O)c3ccccc32)cc(OC)c1OC (centres undefined) | 89.4% (inactive)
COC(=O)[C@@H](Cc1c[nH]c2ccccc12)NC(=O)/C=C/c1ccccc1 | 9.94% (active)

For this compound ( CC(SC(C)C(=O)N/N=C/c1cccc(Cl)c1)C(=O)N/N=C\c1cccc(Cl)c1 (centres undefined) ), measured growth is 20.5% (inactive)

The compound identified as CCOc1cc(/C=N\NC(=O)C[N+](C)(C)C)ccc1O registered its growth at 114% (inactive)

response.value for Cc1cc(N)cc(C)c1-c1c(Br)cc(N)cc1Br (field: growth) = 17.4% (inactive)

Quick note, growth for O=C(CSc1nc2c(n1Nc1ccccc1)-c1ccccc1SC2)Nc1nccs1 landed at 99.4% (inactive)

* * *

Test system: KM12 colon
Experiment: NCI-60 one-dose screen, 48 h (100 = growth as untreated, 0 = no growth, -100 = all killed)
Conditions: 10 µM unless noted
The panel holds about 83,000 compounds, 20% with a hit somewhere; the sample as a whole holds those more often.
ASSAY METRIC: growth (%)
Express the result in % but write the number alone.

Known growth results, listed for orientation:
SMILES REPR | MEASURED TARGET | ASSAY RESULT
CN(C)CCNC(=O)n1cc(-c2ccncc2)c(-c2cc(O)cc(Cl)c2)n1 | KM12 colon | 106
C=C[C@H]1CCC/C=C/[C@@H]2C[C@H](O)C[C@H]2[C@H](O)/C=C/C(=O)O1 | KM12 colon | -59.2
Cc1ccc2c(C)c3c(ccc4ccccc43)c[n+]2c1 | KM12 colon | 28.6
O=C(NCCN1CCCCC1)n1cc(-c2ccncc2)c(-c2ccc(Cl)c(O)c2)n1 | KM12 colon | 102
COc1ccc(-c2cc(-c3ccc(OC)cc3)c3sc(=O)[nH]c3n2)cc1 | KM12 colon | 93.9
CCCCCCCCN(CCCCCCCC)C(=O)CCl | KM12 colon | 112

Okay, now this molecule:
The reported growth of the molecule Cc1cc(-c2ccccc2)on1 was 106

* * *

Measured growth by item
Tested on: A498 renal
Assay: NCI-60 one-dose screen, 48 h (100 = growth as untreated, 0 = no growth, -100 = all killed)
Settings: 10 µM unless noted
Compounds without any hit were thinned out: in the full panel of roughly 83,000, 20% have a hit.
Report the figure in % without appending any unit label.

Previously resolved entries follow.
COMPOUND | ASSAY RESULT
CC(C)=CC[C@@H]1CC2(CC=C(C)C)C(=O)C(OC3(C(=O)c4ccccc4)C(=O)C4(CC=C(C)C)C[C@@H](CC=C(C)C)C(C)(C)C(CC=C(C)C)(C4=O)C3=O)(C(=O)c3ccccc3)C(=O)C(CC=C(C)C)(C2=O)C1(C)C (stereo partly drawn) | -58
CCCCOc1nc2ccc(C)cc2cc1/C=C/C(=O)/C=C(O)/C=C/c1cc2cc(C)ccc2nc1OCCCC | 116
COc1cc(C2C(C#N)=C(N)Oc3cc4c(cc32)OCO4)cc2c1OCO2 (stereo not drawn) | 8.65

According to the records, this compound Cc1ccsc1C(=O)CC(=O)C(F)(F)C(F)(F)C(F)(F)F displays growth of 116

Entry under test: CN1CCCN(CCNc2nccc(-c3c(-c4cccc(O)c4)nc4sccn34)n2)S1(=O)=O . Its growth was 58.8

* * *

Test system: SK-MEL-5 melanoma
Assay: NCI-60 one-dose screen, 48 h (100 = growth as untreated, 0 = no growth, -100 = all killed)
Conditions: 10 µM unless noted
Protocol: Growth inhibition of the SK-MEL-5 human tumor cell line is measured as a screen for anti-cancer activity. Cells are grown in 96 well plates and exposed to the test compound for 48 hours. Compounds are tested at a single concentration, which is 10^-5 M for most compounds. The reported endpoint is percent growth (GI% or GIPRCNT), where numbers from 0 - 100% represent growth inhibition, and numbers from -100% - 0 represent cell death. For example, a value of 40 represents 60% growth inhibition. […]
The panel holds about 83,000 compounds, 20% with a hit somewhere; the sample as a whole holds those more often.
// classify: if (growth < 80%) Met else Not met

COMPOUND | MEASURED TARGET | CLASS NAME
CC(C)(CCc1ccccn1)C(=O)CCCc1ccccn1 | SK-MEL-5 melanoma | Not met
COC(=O)c1ccc2c(c1)nc(-c1ccc(Cl)cc1)n2-c1cc(C(C)(C)C)[nH]n1 | SK-MEL-5 melanoma | Met
Cc1[nH]c2ccccc2c1C1=CC(=O)C=CC1=O | SK-MEL-5 melanoma | Not met
COc1ccc(-c2conc2-n2nc(-c3ccccc3)nc2-c2ccccc2)cc1 | SK-MEL-5 melanoma | Not met
CC(=O)N1N=C(C2C(=O)N(C)C(=O)N(C)C2=O)CC1c1ccccc1C(=O)O (centres undefined) | SK-MEL-5 melanoma | Not met
C=C1C(=O)O[C@H]2[C@H]1CC/C(COC(=O)NCc1cccc(OC)c1)=C\CC[C@@]1(C)O[C@@H]21 | SK-MEL-5 melanoma | Met

## Task Please state whether growth is below 80% for CS(=O)(=O)c1ccc(C(=O)N/N=C/c2cccc3ccccc23)cc1
## Result Met

## Task growth under 80%? Item: COc1ccc(NC(=O)Cn2c(=O)sc3c(-c4ccc(Cl)cc4)cc(-c4ccc(Cl)cc4)nc32)cc1
## Result Not met

## Task # TODO verify growth < 80% strictly for this compound: N#CCCn1cnc2c(N)ncnc21
## Result Not met

## Task Identify whether the compound CCCCSc1ncnc2c1ncn2C1CCCCO1 (centres undefined) records growth below 80%.
## Result Not met

## Task For O=C1/C(=C/c2cc(F)cc(F)c2)Cc2cc(F)cc(F)c21 , is the recorded growth below the cut-off of 80%?
## Result Met

## Task Is growth of O=C(O)c1cc2cc(OCc3ccccc3)ccc2[nH]1 strictly below 80%?
## Result Not met

## Task Does the reported growth of the following compound sit strictly below 80%? CC(C)CCC(=O)[C@@H](C)[C@H]1[C@@H](OC2OCC(O)C(O)C2NS(C)(=O)=O)C[C@H]2[C@@H]3CC=C4C[C@@H](O)CC[C@]4(C)[C@H]3CC[C@]12C (some centres undefined)
## Result Met

## Task Does this compound meet the criterion growth < 80%? CN1C(=O)NC(Cc2c[nH]c3c(Cl)cccc23)C1=O (centres undefined)
## Result Not met

* * *

System: TK-10 renal
Assay: NCI-60 one-dose screen, 48 h (100 = growth as untreated, 0 = no growth, -100 = all killed)
Conditions: 10 µM unless noted
Compounds without any hit were thinned out: in the full panel of roughly 83,000, 20% have a hit.
Collected growth values appear next to each entry.
Provide only the numeric value, understood in %.

Consider c1coc(CNc2c3ccccc3nc3ccccc23)c1 . Its measured growth is 88.4

According to the records, this molecule CN(C)CCCN1c2ccccc2CCc2ccccc21 displays growth of 93.3

Record summary for CC(C)(C)[Si](C)(C)OC1[C@@H](O[Si](C)(C)C(C)(C)C)[C@@H](CNC(=O)NC(=O)NC(=O)CI)O[C@H]1n1cnc2c(NC(=O)Nc3ccccc3)ncnc21 (stereo not given in full) : reported growth = 46.6

The value of growth measured for the molecule CC(C)(C)c1ccc(C(=O)Nc2sc3cc(O)ccc3c2C(N)=O)cc1 turned out to be 133

Notebook: C=C1C(=O)O[C@H]2[C@H]1CC/C(COC(=O)NCc1cccc(OC)c1)=C\CC[C@@]1(C)O[C@@H]21 , growth read as -11.7

Entry Nc1ccc(C2=NNC(=O)Cc3cc4c(cc32)OCCO4)cc1Cl ; growth = 72.3

What the record says about CS(=O)(=O)c1ccc(Cl)c([N+](=O)[O-])c1 : growth is 108

growth for COc1ccc(-n2c(COc3ccc(F)cc3)n[nH]c2=S)cc1 is 101

Short answer for Nc1ncnc2c1N=C(c1ccc3c(c1)OCO3)CC(c1ccc(Cl)cc1)N2 (stereo not given) : growth was 99.7

Quick note, growth for COc1cc(NCC(O)CN(CC(C)C)CC(C)C)c2ncccc2c1 (stereo not given) landed at 113
